assay: APR_HepG2_StressKinase_1hr: Apredica 1-hour HepG2 Assay for Stress Kinase (AID 2282906); conditions: HepG2 stress kinase (phospho-c-Jun) imaging, actives raise or lower the signal
Active and inactive are the calls of the source. How the source made its calls: active means hit-call score of the fitted dose curve at least 0.9, where 1 is the maximum; inactive means score below 0.9.
Your response should consist of one outcome taken from active, inactive

Previously resolved entries follow.
COC(=O)C=C(C)OP(=O)(OC)OC: inactive
CC(C)C1(C)N=C(c2nc3ccccc3cc2C(=O)O)NC1=O (stereo not given): inactive
CCNc1nc(Cl)nc(NCC)n1: inactive
CCCCOC(=O)c1ccccc1C(=O)OCCCC: inactive
CCCCNC(=O)OCC#CI: inactive
CCOC(=O)C(Cl)Cc1cc(-n2nc(C)n(C(F)F)c2=O)c(F)cc1Cl (stereo not given): inactive
COc1nc(NC(C)C)nc(NC(C)C)n1: inactive
Fc1ccc(Oc2ccnc3cc(Cl)cc(Cl)c23)cc1: inactive
CCCN(CCC)c1c([N+](=O)[O-])cc(S(N)(=O)=O)cc1[N+](=O)[O-]: inactive

Here's the next entry for you.
Answer briefly: the call reported for CN(C)C(=S)SSC(=S)N(C)C in this assay.
active
